# targetUnderTest: Grb2 SH2 (UniProt P62993)
# Sequence (P62993 whole entry, looked up, the tested form may be a part): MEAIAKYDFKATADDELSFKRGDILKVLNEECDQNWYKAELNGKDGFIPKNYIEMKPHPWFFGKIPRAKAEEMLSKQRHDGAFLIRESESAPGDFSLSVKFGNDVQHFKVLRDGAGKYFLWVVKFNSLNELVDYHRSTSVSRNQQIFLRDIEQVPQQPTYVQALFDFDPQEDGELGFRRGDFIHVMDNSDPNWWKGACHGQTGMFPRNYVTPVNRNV
# testMethodNotes: SH2 binding enrichment of the phosphorylated peptide, bacterial display (enrichment ratio); higher = better substrate or ligand; peptides without Tyr show the background;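 note: peptide library displayed on the E. coli surface as eCPX fusions, selected cells deep-sequenced, score is each peptide's frequency after selection divided by its frequency in the input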
observable: SH2 binding enrichment

| querySequence | experimentalResult |
| --- | --- |
| RKQQLYIAMEE [CCDC39_Y593_T594I] | 0.916 |
| FKDYFYCWNTF [AICDA_Y146] | 0.878 |
| DEENFYQGSME [ASCC1_Y36_D34N] | 0.891 |
| QNTGDYYDLYG [PTPN11_Y62] | 0.911 |
| FRDMDYRSFPH [RBM10_Y41_R46H_YF] | 0.911 |
| PSRKDYETFQP [CTNND2_Y1154_YF] | 0.884 |
| IAAEYYDNLPH [DEGS1_Y284] | 0.88 |
| DIMDLYNQPEP [IL36A_Y96] | 0.879 |
| LKEIHYPPYTD [ALDH3B2_Y362] | 0.896 |
| TQKLAYVELQQ [CENPF_Y700_M701V] | 0.874 |
| SVVVPYEPPDV [TP53_Y220_E224D] | 0.89 |
